Data origin, for the record: patent US9315546B2

# system_under_test: Ghrelin/GHRP/GHS Receptor (Rattus norvegicus, UniProt O08725)
# Sequence (O08725 whole entry): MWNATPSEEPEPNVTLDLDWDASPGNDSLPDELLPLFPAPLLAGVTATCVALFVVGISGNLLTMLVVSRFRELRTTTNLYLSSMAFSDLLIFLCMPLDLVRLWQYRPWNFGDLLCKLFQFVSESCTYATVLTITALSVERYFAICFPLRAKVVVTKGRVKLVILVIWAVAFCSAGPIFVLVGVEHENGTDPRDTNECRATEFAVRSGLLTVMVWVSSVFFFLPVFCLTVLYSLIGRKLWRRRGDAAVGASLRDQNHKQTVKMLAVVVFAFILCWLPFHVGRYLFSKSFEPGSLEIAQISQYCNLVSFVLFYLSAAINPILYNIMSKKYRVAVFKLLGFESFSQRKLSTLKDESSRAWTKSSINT
# test_details: In vivo GH release in rat after i.v. peptide (serum GH by RIA)
# assay_setup: Table 3; peptide alone 3 μg i.v.
Where no end group is shown, it is not given here. [ ]: non-standard residue; d: D form. d2Nal = N[C@H](Cc1ccc2ccccc2c1)C(=O)O
The recorded Unstimulated Basal GH release of each item maps onto one of these classes: lo (below 200 ng/mL), mid (200 ng/mL to below 300 ng/mL), hi (300 ng/mL or more)

- substance: "DAla-DβNal-Ala-Ala-DAla-Lys-NH2 [6-DAla-DβNal-Ala-Ala-DAla-Lys-NH2]"
  label: "mid"
- substance: "[dA][d2Nal][dA][dW]FK-NH2 [9-DAla-DβNal-DAla-DTrp-Phe-Lys-NH2]"
  label: "hi"
- substance: "[d2Nal]AW[dF]A-NH2 [1-DβNal-Ala-Trp-DPhe-Ala-NH2]"
  label: "hi"
- substance: "[d2Nal]AW[dF]L-NH2 [7-DβNal-Ala-Trp-DPhe-Leu-NH2]"
  label: "mid"
- substance: "DcyclohexylAla-Ala-Trp-DPhe-NH2 [5-DcyclohexylAla-Ala-Trp-DPhe-NH2]"
  label: "lo"
- substance: "DcyclohexylAla-Ala-Phe-DTrp-Lys-NH2 [3-DcyclohexylAla-Ala-Phe-DTrp-Lys-NH2]"
  label: "mid"
- substance: "H[dW]FW[dF]K-NH2 [8-His-DTrp-Phe-Trp-DPhe-Lys-NH2]"
  label: "lo"
- substance: "[dA][d2Nal]AT[dT]K-NH2 [4-DAla-DβNal-Ala-Thr-DThr-Lys-NH2]"
  label: "mid"
